experiment: Microsomal stability; assay type: in vitro ADME; conditions: mouse, microsomes
Measured Attribute: half-life

Input: Consider the compound O=C(O)c1cc(NC(=O)C2CC2c2ccccc2)ccc1O (stereo not shown) [ACA-14] and give its recorded half-life.
Output: > 3 h

====

test system: MDR1; test: Permeability and efflux in MDR1-MDCK cell monolayer system; type: in vitro ADME; conditions: dog, MDCK-MDR1
Would you mind telling me the reported Papp A→B of each entry?
Provide the reading as a plain figure in ×10⁻⁶ cm/s.

Input: State, in one line, measured Papp A→B of CC(C)CN(C[C@@H](O)[C@H](Cc1ccccc1)NC(=O)O[C@H]1CCOC1)S(=O)(=O)c1ccc(N)cc1
Output: 1.65

Input: Tell me measured Papp A→B for O=C(O)c1cc(NC(=O)C2CC2c2ccccc2)ccc1O (stereo not drawn) please.
Output: 5.42

Input: Note down Papp A→B recorded for CC(C)NCC(O)COc1cccc2ccccc12 (stereo not drawn)
Output: 31.2
